Ref: ChEMBL document CHEMBL5046270

- test.method.notes: Inhibition of CDK8/CDK19 in MV4-11 cells and measured after 7 days by Spectra max iD5 microplate reader
- Type: cell-based, Homo sapiens
reported.endpoint: log10 of IC50 (log10 of the value in nM)
// stored as log10 of IC50 expressed in nM

As a guide, the following entries are already answered.
Quick one: log10 of IC50 of "CN1CCN(C(=O)c2ccc3cc(CCNc4ccnc5ccc(C#N)cc45)ccc3c2)CC1" ?
2.03

Try this compound next: "N#Cc1ccc2nccc(NCCc3ccc4cc(C(=O)N5CCSCC5)ccc4c3)c2c1"
1.97

One more compound: "N#Cc1ccc2nccc(NCCc3ccc4cc(C(=O)N5CCN(CCCN)CC5)ccc4c3)c2c1"
2.48

Record: "CC(=O)N1CCN(C(=O)c2ccc3cc(CCNc4ccnc5ccc(C#N)cc45)ccc3c2)CC1"
2.47

Try "CC(C)(C)OC(=O)NCCCN1CCN(C(=O)c2ccc3cc(CCNc4ccnc5ccc(C#N)cc45)ccc3c2)CC1" next.
2.22

Give log10 of IC50 for each listed item.
1. CN(CCCN)C(=O)c1ccc2cc(CCNc3ccnc4ccc(C#N)cc34)ccc2c1
2. N#Cc1ccc2nccc(NCCc3ccc4cc(C(=O)N5CCS(=N)(=O)CC5)ccc4c3)c2c1
3. CN(CCCNC(=O)OC(C)(C)C)C(=O)c1ccc2cc(CCNc3ccnc4ccc(C#N)cc34)ccc2c1

1. 2.47
2. 2.43
3. 2.24

Please give log10 of IC50 for each item listed below.
1. N#Cc1ccc2ncnc(NCCc3ccccc3)c2c1
2. N#Cc1ccc2nccc(NCCc3ccc4cc(C(=O)N5CC[S+]([O-])CC5)ccc4c3)c2c1
3. CC(C)(C)OC(=O)N1CCN(C(=O)c2ccc3cc(CCNc4ccnc5ccc(C#N)cc45)ccc3c2)CC1

1: 3.00; 2: 2.35; 3: 2.32

###

Hi there, I'd appreciate the recorded pIC50 for every entry that follows.
- target.system: CDK8/Cyclin C (Homo sapiens, UniProt P49336)
- Sequence (P49336 whole entry): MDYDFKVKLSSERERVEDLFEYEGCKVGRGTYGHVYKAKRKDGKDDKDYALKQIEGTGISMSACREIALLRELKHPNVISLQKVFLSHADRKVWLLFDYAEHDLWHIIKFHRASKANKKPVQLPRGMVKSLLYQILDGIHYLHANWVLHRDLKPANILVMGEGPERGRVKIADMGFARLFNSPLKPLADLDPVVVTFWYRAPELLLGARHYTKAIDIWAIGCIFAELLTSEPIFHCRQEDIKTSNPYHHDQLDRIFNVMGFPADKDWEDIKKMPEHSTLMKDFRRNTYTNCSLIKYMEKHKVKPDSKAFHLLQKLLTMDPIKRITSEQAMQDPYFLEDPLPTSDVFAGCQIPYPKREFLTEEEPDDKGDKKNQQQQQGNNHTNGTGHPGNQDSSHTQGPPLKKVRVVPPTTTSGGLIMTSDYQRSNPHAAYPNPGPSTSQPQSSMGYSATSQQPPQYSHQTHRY
- Sequence (P24863 whole entry, further chain): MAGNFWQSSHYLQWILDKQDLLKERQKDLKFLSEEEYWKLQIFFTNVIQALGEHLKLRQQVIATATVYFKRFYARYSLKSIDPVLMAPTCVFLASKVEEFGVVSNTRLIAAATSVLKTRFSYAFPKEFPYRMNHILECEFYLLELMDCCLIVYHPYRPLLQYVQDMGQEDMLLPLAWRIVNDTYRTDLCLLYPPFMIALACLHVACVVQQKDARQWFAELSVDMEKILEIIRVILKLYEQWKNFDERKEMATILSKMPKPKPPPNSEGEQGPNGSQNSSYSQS
- test.method.notes: Inhibition of kinase tracer 236 binding to His tagged recombinant human CDK8/cyclin C incubated for 60 min FRET based LanthaScreen Eu-Kinase binding assay
Numbers only, as −log10 of the molar value.

GET /values?readout=pIC50&item= "FC(F)(F)c1ccc2nccc(NCCc3ccccc3)c2c1"
6.45

Give pIC50 for each listed item.
1. N#Cc1ccc2nccc(NCCc3ccc4cc(C(=O)N5CCN(CCCN)CC5)ccc4c3)c2c1
2. CN(CCCNC(=O)OC(C)(C)C)C(=O)c1ccc2cc(CCNc3ccnc4ccc(C#N)cc34)ccc2c1
3. CC(=O)N1CCN(C(=O)c2ccc3cc(CCNc4ccnc5ccc(C#N)cc45)ccc3c2)CC1

1. 8.19
2. 8.03
3. 7.92

For every item below, please supply its pIC50.
1. N#Cc1ccc2ncnc(NCCc3ccccc3)c2c1
2. Clc1ccc2nccc(NCCc3ccccc3)c2c1
3. CC(C)(C)OC(=O)NCCCN1CCN(C(=O)c2ccc3cc(CCNc4ccnc5ccc(C#N)cc45)ccc3c2)CC1
4. CC(C)(C)OC(=O)N1CCN(C(=O)c2ccc3cc(CCNc4ccnc5ccc(C#N)cc45)ccc3c2)CC1
5. Brc1ccc2nccc(NCCc3ccccc3)c2c1
6. Ic1ccc2nccc(NCCc3ccccc3)c2c1
7. CN(CCCN)C(=O)c1ccc2cc(CCNc3ccnc4ccc(C#N)cc34)ccc2c1

1: 7.46; 2: 7.36; 3: 8.09; 4: 7.72; 5: 6.74; 6: 6.67; 7: 8.04

Return reported pIC50 values for all items listed beneath this line.
1. N#Cc1ccc2nccc(NCCc3ccc4cc(C(=O)N5CC[S+]([O-])CC5)ccc4c3)c2c1
2. CN1CCN(C(=O)c2ccc3cc(CCNc4ccnc5ccc(C#N)cc45)ccc3c2)CC1
3. N#Cc1ccc2nccc(NCCc3ccc4cc(C(=O)N5CCS(=N)(=O)CC5)ccc4c3)c2c1
4. N#Cc1ccc2nccc(NCCc3ccc4cc(C(=O)N5CCSCC5)ccc4c3)c2c1

8.24
8.44
8.34
8.04
